- Test Target: α1A adrenoceptor (Rattus norvegicus, UniProt P43140)
- Construct: from tissue; host or cells: rat submaxillary gland membranes
- Protocol Description: Radioligand binding, [3H] prazosin displacement, rat submaxillary membranes
- Study Conditions: ratio of binding affinities, rat liver / rat submaxillary
Where a name gives a salt, the structure may show the parent alone.
Endpoint Name: α1B/α1A

{"columns": ["Compound", "Endpoint Name", "Endpoint Value"],
 "data": [
  ["CC(=O)N(CCCN1C(=O)C2CC=CCC2C1=O)CCNc1ccccc1OC(C)C.Cl (stereo not drawn) [Compound No. 46]", "α1B/α1A", ">3"],
  ["CC(C)Oc1cccc(O)c1N1CCN(CCCN2C(=O)CCCC2=O)CC1 [Compound No. 37, hydrochloride]", "α1B/α1A", ">2"],
  ["O=C1C2CC=CCC2C(=O)N1CC(O)CN1CCN(c2ccccc2OCC(F)(F)F)CC1 (stereo not drawn) [Compound No. 31, hydrochloride]", "α1B/α1A", 40]
]}

====

- Test Target: α1B adrenoceptor (Rattus norvegicus, UniProt P15823)
- Sequence (P15823 1-515): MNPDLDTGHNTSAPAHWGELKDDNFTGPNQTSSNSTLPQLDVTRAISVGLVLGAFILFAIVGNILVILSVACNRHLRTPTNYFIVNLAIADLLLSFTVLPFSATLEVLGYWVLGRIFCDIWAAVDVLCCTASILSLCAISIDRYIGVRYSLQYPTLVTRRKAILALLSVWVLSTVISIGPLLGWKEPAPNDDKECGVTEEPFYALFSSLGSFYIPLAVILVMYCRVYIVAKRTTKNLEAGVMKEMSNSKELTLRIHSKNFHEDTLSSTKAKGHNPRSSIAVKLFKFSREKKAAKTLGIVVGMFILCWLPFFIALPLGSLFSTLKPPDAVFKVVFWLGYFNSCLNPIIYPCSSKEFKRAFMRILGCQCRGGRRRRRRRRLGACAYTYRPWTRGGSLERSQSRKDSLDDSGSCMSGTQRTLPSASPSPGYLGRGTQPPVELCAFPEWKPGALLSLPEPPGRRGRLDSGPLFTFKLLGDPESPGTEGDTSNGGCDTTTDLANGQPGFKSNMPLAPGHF
Where a name gives a salt, the structure may show the parent alone.

{"columns": ["Compound", "Ki"],
 "data": [
  ["CC(C)Oc1ccccc1N1CCN(C(=O)CCN2C(=O)CCCC2=O)CC1.Cl [Compound No. 49, hydrochloride]", "> 1 µM"],
  ["CC(C)Oc1ccccc1N1CCN(CCC(=O)N2C(=O)C3CC=CCC3C2=O)CC1.Cl (stereo not drawn) [Compound No. 62, hydrochloride]", "> 1 µM"],
  ["CC(C)Oc1cccc(O)c1N1CCN(CCCN2C(=O)CCCC2=O)CC1 [Compound No. 37, hydrochloride]", "> 1 µM"]
]}

====

- Test Target: α1B adrenoceptor (Rattus norvegicus)
Counter-ions that a name gives are not always drawn.
As shown below, each of these compounds has a reported Ki value.
Endpoint Name: Ki

{"columns": ["Compound", "Endpoint Value"],
 "data": [
  ["CC(C)Oc1ccccc1N(CCO)CCNCCCN1C(=O)C2CC=CCC2C1=O (stereo not drawn) [Compound No. 68, hydrochloride]", "> 10 µM"],
  ["CC(C)Oc1ccccc1NCCN(CCO)CCCN1C(=O)[C@H]2CC=CC[C@H]2C1=O [Compound No. 48, hydrochloride]", "> 1 µM"],
  ["CC(=O)Nc1ccc(N2CCN(CCCN3C(=O)C4CC=CCC4C3=O)CC2)c(OC(C)C)c1.Cl (stereo not drawn) [Compound No. 58, hydrochloride]", "> 1 µM"]
]}

====

- Test Target: α1A adrenoceptor (Rattus norvegicus, UniProt P43140)
- Sequence (P43140 1-466): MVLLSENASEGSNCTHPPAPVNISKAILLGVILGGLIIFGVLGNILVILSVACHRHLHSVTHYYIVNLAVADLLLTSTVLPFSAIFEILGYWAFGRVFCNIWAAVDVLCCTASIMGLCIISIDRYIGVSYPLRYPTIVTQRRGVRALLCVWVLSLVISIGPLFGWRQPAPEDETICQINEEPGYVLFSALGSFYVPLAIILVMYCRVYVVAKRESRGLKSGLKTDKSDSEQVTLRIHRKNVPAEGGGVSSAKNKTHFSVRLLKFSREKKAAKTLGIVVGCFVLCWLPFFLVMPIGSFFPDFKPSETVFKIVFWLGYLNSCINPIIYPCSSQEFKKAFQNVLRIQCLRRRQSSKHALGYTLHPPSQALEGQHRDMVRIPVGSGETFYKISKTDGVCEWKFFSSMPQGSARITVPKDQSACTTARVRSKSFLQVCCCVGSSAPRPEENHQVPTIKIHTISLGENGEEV
Counter-ions that a name gives are not always drawn.
As shown below, each of these compounds has a reported Ki value.
Endpoint Name: Ki (nM)

{"columns": ["Compound", "Sign", "Endpoint Value"],
 "data": [
  ["CC(C)Oc1ccccc1N1CCN(CCC(=O)N2C(=O)C3CCCCC3C2=O)CC1.Cl (stereo not drawn) [Compound No. 63, hydrochloride]", ">", 100],
  ["O=C1CCCC(=O)N1CCCN1CCN(c2ccccc2OCC(F)(F)F)CC1 [compound 03]", "=", 0.26],
  ["COc1ccccc1N1CCN(CC(O)CN2C(=O)C3CC=CCC3C2=O)CC1.Cl (stereo not drawn) [compound 06, hydrochloride]", "=", 38],
  ["Cl.O=C1C2CC=CCC2C(=O)N1CCCN1CCN(c2ccccc2OC2CCCC2)CC1 (stereo not drawn) [Compound No. 43, hydrochloride]", "=", 0.5],
  ["CC(C)Oc1ccccc1N1CCN(CCCN2C(=O)C3CCCC(O)C3C2=O)CC1.Cl (stereo not drawn) [Compound No. 60, hydrochloride]", "=", 1.2],
  ["O=C1C2CC=CCC2C(=O)N1CC(O)CN1CCN(c2ccccc2OCC(F)(F)F)CC1 (stereo not drawn) [Compound No. 31, hydrochloride]", "=", 2.3],
  ["CC(C)Oc1ccccc1N1CCN(CCCN2C(=O)C3=CC=CCC3C2=O)CC1.Cl (stereo not drawn) [Compound No. 59, hydrochloride]", "=", 2.3],
  ["CC(C)Oc1ccccc1NCCNCCCN1C(=O)[C@H]2CC=CC[C@H]2C1=O [Compound No. 42, hydrochloride]", "=", 19],
  ["CC(C)Oc1ccc(O)cc1N1CCN(CCCN2C(=O)C3CC=CCC3C2=O)CC1.Cl (stereo not drawn) [Compound No. 21, hydrochloride]", "=", 3.4]
]}

====

As shown below, each of these compounds has a reported pKi value.
- Test Target: α1A adrenoceptor (Rattus norvegicus, UniProt P43140)
- Sequence (P43140 1-466): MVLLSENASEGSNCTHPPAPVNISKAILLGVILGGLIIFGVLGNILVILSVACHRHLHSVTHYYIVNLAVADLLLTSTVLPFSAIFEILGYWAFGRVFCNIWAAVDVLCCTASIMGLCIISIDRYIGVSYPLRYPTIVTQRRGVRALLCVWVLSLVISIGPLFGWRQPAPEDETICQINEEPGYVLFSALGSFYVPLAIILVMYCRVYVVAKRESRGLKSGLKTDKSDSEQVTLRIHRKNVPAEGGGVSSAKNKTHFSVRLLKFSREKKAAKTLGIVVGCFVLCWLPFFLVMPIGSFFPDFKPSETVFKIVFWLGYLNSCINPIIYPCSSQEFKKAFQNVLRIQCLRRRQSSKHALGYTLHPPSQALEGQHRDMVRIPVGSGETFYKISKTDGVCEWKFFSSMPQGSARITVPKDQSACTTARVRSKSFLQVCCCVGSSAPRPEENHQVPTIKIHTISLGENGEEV
pKi: −log10 of the molar value. Where a name gives a salt, the structure may show the parent alone.
Endpoint Name: pKi

{"columns": ["Compound", "Endpoint Value"],
 "data": [
  ["CC(C)Oc1ccccc1N1CCN(C(=O)CCN2C(=O)CCCC2=O)CC1.Cl [Compound No. 49, hydrochloride]", "< 6.00"],
  ["CCOC(=O)CN(CCCN1C(=O)C2CC=CCC2C1=O)CCNc1ccccc1OC(C)C (stereo not shown)", 6.45],
  ["CC(C)Oc1ccccc1N1CCN(CCC(=O)N2C(=O)C3CC=CCC3C2=O)CC1.Cl (stereo not shown) [Compound No. 62, hydrochloride]", "< 6.00"],
  ["COc1ccccc1NCCNCCCN1C(=O)CCCC1=O [Compound No. 56, hydrochloride]", "< 7.00"]
]}

====

- Test Target: α1B adrenoceptor (Rattus norvegicus, UniProt P15823)
pKi: −log10 of the molar value. Counter-ions that a name gives are not always drawn.

{"columns": ["Compound", "pKi"],
 "data": [
  ["CC(C)Oc1cccc(O)c1N1CCN(CCCN2C(=O)C3CC=CCC3C2=O)CC1 (stereo not drawn) [Compound No. 27, hydrochloride]", "< 5.30"],
  ["CCOC(=O)CN(CCCN1C(=O)C2CC=CCC2C1=O)CCNc1ccccc1OC(C)C (stereo not drawn) [Compound No. 52]", "< 4.82"],
  ["CC(=O)N(CCCN1C(=O)C2CC=CCC2C1=O)CCNc1ccccc1OC(C)C.Cl (stereo not drawn) [Compound No. 46, hydrochloride]", "< 6.00"]
]}
